Let's look at some compounds and their measured pIC50.
system: dengue virus type 2; experiment: Antiviral activity against DENV2 16681 infected in African green monkey Vero E6 cells assessed as inhibitory rate of NS4B positive cells measured after 96 hrs incubation by DAPI staining based immunofluorescence method; format: functional, organism-based; conditions: Dengue virus, 16681, Vero C1008, 96 h
Please express pIC50 as -log10 of the molar concentration.

Examples from the recorded data:
Return pIC50 for the following compound: CC[C@H](C)[C@H](NC(=O)[C@H]1O[C@@H](O[C@H]2[C@@H](O[C@H]3CC[C@]4(C)[C@H]5C(=O)C=C6[C@@H]7C[C@@](C)(C(=O)N[C@H](C(=O)O)[C@@H](C)CC)CC[C@]7(C)CC[C@@]6(C)[C@]5(C)CC[C@H]4C3(C)C)O[C@H](C(=O)N[C@H](C(=O)O)[C@@H](C)CC)[C@@H](O)[C@@H]2O)[C@H](O)[C@@H](O)[C@@H]1O)C(=O)O
5.89

Return pIC50 for the following compound: CC1(C)[C@@H](O[C@H]2O[C@H](C(=O)O)[C@@H](O)[C@H](O)[C@H]2O[C@@H]2O[C@H](C(=O)O)[C@@H](O)[C@H](O)[C@H]2O)CC[C@]2(C)[C@H]3C(=O)C=C4[C@@H]5C[C@@](C)(C(=O)O)CC[C@]5(C)CC[C@@]4(C)[C@]3(C)CC[C@@H]12
5.09

Field: next compound
Return pIC50 for the following compound: COC(=O)[C@H](CCSC)NC(=O)[C@H]1O[C@@H](O[C@H]2[C@@H](O[C@H]3CC[C@]4(C)[C@H]5C(=O)C=C6[C@@H]7C[C@@](C)(C(=O)N[C@@H](CCSC)C(=O)OC)CC[C@]7(C)CC[C@@]6(C)[C@]5(C)CC[C@H]4C3(C)C)O[C@H](C(=O)N[C@@H](CCSC)C(=O)OC)[C@@H](O)[C@@H]2O)[C@H](O)[C@@H](O)[C@@H]1O
5.35
